System under test: VEGF receptor KDR (Homo sapiens)
Construct: made in house; host or cells: Sf9 cells (Spodoptera frugiperda), baculovirus
Sequence (P35968 806-1356): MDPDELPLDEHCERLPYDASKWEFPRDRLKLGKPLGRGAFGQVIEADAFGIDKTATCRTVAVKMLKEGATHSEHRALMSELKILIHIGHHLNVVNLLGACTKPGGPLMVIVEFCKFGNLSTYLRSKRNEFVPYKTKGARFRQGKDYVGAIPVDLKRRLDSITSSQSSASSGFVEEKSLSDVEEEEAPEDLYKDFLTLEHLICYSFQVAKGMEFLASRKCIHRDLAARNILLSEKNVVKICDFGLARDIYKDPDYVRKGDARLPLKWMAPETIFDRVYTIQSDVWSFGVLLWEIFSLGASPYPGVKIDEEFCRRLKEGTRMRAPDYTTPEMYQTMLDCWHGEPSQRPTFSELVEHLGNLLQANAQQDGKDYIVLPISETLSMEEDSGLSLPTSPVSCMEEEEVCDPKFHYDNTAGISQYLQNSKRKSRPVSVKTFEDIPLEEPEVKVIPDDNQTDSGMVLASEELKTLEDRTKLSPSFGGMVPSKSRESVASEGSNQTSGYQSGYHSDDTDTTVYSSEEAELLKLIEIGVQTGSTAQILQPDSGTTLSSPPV
Experimental details: In vitro receptor tyrosine kinase assay (DELFIA), VEGF receptor KDR
Format: biochemical
Recorded conditions: read-out: VEGFR IC50
pIC50: −log10 of the molar value.
Property measured: pIC50

// query Endpoint output: pIC50 of O=C(CC(=O)Nc1ccc(Oc2ccnc3cc(-c4cccc[n+]4[O-])sc23)c(F)c1)Nc1ccccc1 . Value?
// result > 7.30

// query Suppose we examine the compound CN1CCN(Cc2ccc(-c3cc4nccc(Oc5ccc(NC(=O)CC(=O)Nc6ccccc6)cc5F)c4s3)cc2)CC1 ; what pIC50 value has been reported?
// result > 7.30

// query Returns the measured pIC50 for the input compound. Input: CN(C)[C@H]1CCN(C(=O)c2cc3nccc(Oc4ccc(NC(=O)N5CCN(c6ccccc6)C5=O)cc4F)c3s2)C1
// result > 7.30

// query For the compound shown here, CCn1cncc1-c1cc2nccc(Oc3ccc(NC(=O)CC(=O)Nc4ccccc4F)cc3F)c2s1 , give the reported pIC50.
// result 6.60 to 7.30
